Target: adrenergic α1 receptor
Experiment: adrenergic α1 receptor binding test ([3H] Prazosin Binding Test)
Design: species or system SD rats
Conditions: 1 nM [3H] Prazosin, rat cortex, room temperature, 60 minutes

>  <COMPOUND>
C=CCCC(F)c1cc(N2CCN(CC)CC2)cc(-c2ccccc2C)c1Cl (stereo not drawn)

>  <SUBJECT_OF_TEST>
adrenergic α1 receptor

>  <Ki>
> 1000 nM

$$$$
>  <COMPOUND>
CCCc1cc(N2CCN(CC)CC2)cc(-c2ccccc2OC)c1OC

>  <SUBJECT_OF_TEST>
adrenergic α1 receptor

>  <Ki>
> 1000 nM

$$$$
>  <COMPOUND>
CCC(F)c1cc(N2CCN(C)CC2)cc(-c2ccccc2C)c1Cl (stereo not drawn)

>  <SUBJECT_OF_TEST>
adrenergic α1 receptor

>  <Ki>
> 1000 nM

$$$$

* * *

Target: serotonin S2 receptor (Rattus norvegicus, UniProt P14842)
Sequence (P14842 whole entry): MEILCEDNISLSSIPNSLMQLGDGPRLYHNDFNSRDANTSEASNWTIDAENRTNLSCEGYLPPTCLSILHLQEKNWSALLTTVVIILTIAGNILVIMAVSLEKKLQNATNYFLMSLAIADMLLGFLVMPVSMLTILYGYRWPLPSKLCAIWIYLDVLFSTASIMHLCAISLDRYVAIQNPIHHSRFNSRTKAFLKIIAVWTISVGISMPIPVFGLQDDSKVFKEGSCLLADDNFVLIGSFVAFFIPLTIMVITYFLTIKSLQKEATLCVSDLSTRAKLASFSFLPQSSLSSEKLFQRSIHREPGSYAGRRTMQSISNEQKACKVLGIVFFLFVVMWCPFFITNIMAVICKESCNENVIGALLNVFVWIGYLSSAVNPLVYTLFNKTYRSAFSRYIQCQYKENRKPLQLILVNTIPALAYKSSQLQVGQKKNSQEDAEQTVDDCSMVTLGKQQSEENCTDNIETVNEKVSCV
pKi: −log10 of the molar value.
METRIC: pKi

>  <COMPOUND>
CCCS(=O)(=O)Nc1cc(N2CCN(CC)CC2)cc(-c2ccc(Cl)cc2Cl)c1Cl

>  <METRIC>
pKi

>  <INEQUALITY_SIGN>
<

>  <READOUT_VALUE>
7.00

$$$$
>  <COMPOUND>
CCCCS(=O)(=O)Nc1cc(N2CCN(CC)CC2)cc(-c2ccccc2C)c1Cl

>  <METRIC>
pKi

>  <INEQUALITY_SIGN>
=

>  <READOUT_VALUE>
8.71

$$$$
>  <COMPOUND>
CCC(O)c1cc(N2CCN(CC)CC2)cc(-c2ccccc2)c1Cl (centres unmarked)

>  <METRIC>
pKi

>  <INEQUALITY_SIGN>
=

>  <READOUT_VALUE>
7.60

$$$$
>  <COMPOUND>
CCCS(=O)(=O)c1cc(N2CCN(CC)CC2)cc(-c2ccccc2)c1OC

>  <METRIC>
pKi

>  <INEQUALITY_SIGN>
=

>  <READOUT_VALUE>
8.56

$$$$
>  <COMPOUND>
CCC(F)c1cc(N2CCN(CC)CC2)cc(-c2ccccc2C)c1Cl (centres unmarked) [Example 27]

>  <METRIC>
pKi

>  <INEQUALITY_SIGN>
=

>  <READOUT_VALUE>
7.96

$$$$
>  <COMPOUND>
CC[C@@H](F)c1cc(N2CCN(CCO)CC2)cc(-c2ccccc2C(F)(F)F)c1Cl

>  <METRIC>
pKi

>  <INEQUALITY_SIGN>
=

>  <READOUT_VALUE>
6.82

$$$$
>  <COMPOUND>
CCCCS(=O)(=O)c1cc(N2CCN(CC)CC2)cc(-c2ccccc2)c1OC

>  <METRIC>
pKi

>  <INEQUALITY_SIGN>
=

>  <READOUT_VALUE>
8.56

$$$$
>  <COMPOUND>
CCC(CC)c1cc(N2CCN(CC)CC2)cc(-c2ccccc2C)c1Cl

>  <METRIC>
pKi

>  <INEQUALITY_SIGN>
=

>  <READOUT_VALUE>
7.13

$$$$
>  <COMPOUND>
COc1c(C(=O)Cc2ccccc2)cc(N2CCN(Cc3ccccc3)CC2)cc1-c1ccccc1

>  <METRIC>
pKi

>  <INEQUALITY_SIGN>
=

>  <READOUT_VALUE>
7.56

$$$$
>  <COMPOUND>
CCCS(=O)(=O)c1cc(N2CCN(C)CC2)cc(-c2ccccc2Cl)c1Cl

>  <METRIC>
pKi

>  <INEQUALITY_SIGN>
=

>  <READOUT_VALUE>
8.46

$$$$
>  <COMPOUND>
CCC(Cl)c1cc(N2CCN(CC)CC2)cc(-c2ccccc2Cl)c1Cl (centres unmarked)

>  <METRIC>
pKi

>  <INEQUALITY_SIGN>
=

>  <READOUT_VALUE>
7.29

$$$$
>  <COMPOUND>
CCc1ccccc1-c1cc(N2CCN(CC)CC2)cc(C(F)CC)c1Cl (centres unmarked)

>  <METRIC>
pKi

>  <INEQUALITY_SIGN>
=

>  <READOUT_VALUE>
7.59

$$$$
>  <COMPOUND>
CCN1CCN(c2cc(-c3ccc(F)cc3)c(OC)c(C(C)C)c2)CC1

>  <METRIC>
pKi

>  <INEQUALITY_SIGN>
=

>  <READOUT_VALUE>
7.48

$$$$
>  <COMPOUND>
CCS(=O)(=O)c1cc(N2CCN(CCc3ccccn3)CC2)cc(-c2ccc(F)cc2)c1OC

>  <METRIC>
pKi

>  <INEQUALITY_SIGN>
=

>  <READOUT_VALUE>
8.97

$$$$
